- tested_on: Phosphatidylinositol 4,5-bisphosphate 3-kinase catalytic subunit alpha isoform (Homo sapiens)
- Sequence (P42336 whole entry, canonical isoform): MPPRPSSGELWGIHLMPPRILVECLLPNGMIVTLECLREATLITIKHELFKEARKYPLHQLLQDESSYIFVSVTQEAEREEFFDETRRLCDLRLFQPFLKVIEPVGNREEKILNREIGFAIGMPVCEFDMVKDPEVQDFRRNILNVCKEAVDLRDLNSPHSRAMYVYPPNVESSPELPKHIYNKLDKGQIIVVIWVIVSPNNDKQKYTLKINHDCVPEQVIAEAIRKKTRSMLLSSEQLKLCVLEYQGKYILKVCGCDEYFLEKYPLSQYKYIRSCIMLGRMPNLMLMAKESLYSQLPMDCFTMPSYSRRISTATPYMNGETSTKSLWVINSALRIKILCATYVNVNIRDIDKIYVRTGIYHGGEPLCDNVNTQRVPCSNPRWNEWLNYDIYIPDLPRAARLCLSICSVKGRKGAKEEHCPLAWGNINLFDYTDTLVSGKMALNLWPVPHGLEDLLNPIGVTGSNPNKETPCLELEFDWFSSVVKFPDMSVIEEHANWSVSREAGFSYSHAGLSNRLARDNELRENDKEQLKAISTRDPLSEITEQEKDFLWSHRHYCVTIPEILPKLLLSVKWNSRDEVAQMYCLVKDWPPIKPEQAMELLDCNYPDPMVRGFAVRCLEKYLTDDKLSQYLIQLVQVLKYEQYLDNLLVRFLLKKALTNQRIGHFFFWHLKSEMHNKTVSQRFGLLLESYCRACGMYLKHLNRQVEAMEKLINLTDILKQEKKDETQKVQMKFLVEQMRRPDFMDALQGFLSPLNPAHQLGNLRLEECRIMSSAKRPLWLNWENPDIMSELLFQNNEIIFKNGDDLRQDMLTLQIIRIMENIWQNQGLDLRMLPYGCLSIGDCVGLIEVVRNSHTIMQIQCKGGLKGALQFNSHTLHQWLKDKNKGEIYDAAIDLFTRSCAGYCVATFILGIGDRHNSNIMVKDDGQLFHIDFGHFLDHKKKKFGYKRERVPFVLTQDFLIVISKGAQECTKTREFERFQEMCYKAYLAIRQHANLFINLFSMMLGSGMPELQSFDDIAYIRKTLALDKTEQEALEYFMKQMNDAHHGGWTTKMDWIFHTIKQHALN
- measurement_protocol: Inhibition of PI3Kalpha
measured_attribute: log10 of IC50 (log10 of the value in nM)
# log10 transformed; quantity=IC50; unit=nM

COc1ccc2c(c1)c(/C=C1\Oc3cc(O)cc(O)c3C1=O)c(C)n2CCCN1CCN(C)CC1    1.18
COc1ccc2c(c1)c(/C=C1\Oc3cc(O)cc(O)c3C1=O)c(C)n2CCN(C)C    0.95
COc1ccc2c(c1)c(/C=C1\Oc3cc(O)cc(O)c3C1=O)c(C)n2CCCN1CCOCC1    0.90
COc1ccc2c(c1)c(/C=C1\Oc3cc(O)cc(O)c3C1=O)cn2C    2.03
COc1ccc2c(c1)c(/C=C1\Oc3cc(O)cc(O)c3C1=O)c(C)n2C    0.85
COc1ccc2c(c1)c(/C=C1\Oc3cc(O)cc(O)c3C1=O)c(C)n2CCN1CCOCC1    1.04

Moving on to another compound below.
Asked: Value lookup for log10 of IC50; key = COc1ccc2c(c1)c(/C=C1\Oc3cc(O)cc(O)c3C1=O)c(C)n2CCCN1CCN(CCO)CC1
Given back: 0.78

###

- measurement_protocol: Aqueous solubility at pH 7.4
- Assay type: physicochemical
Exercise: for every item that follows, state its recorded solubility.
One number for each entry, in µg/mL.

Sample answers from the record:
Cn1cc(/C=C2\Oc3cc(O)cc(O)c3C2=O)c2ccccc21    2
O=C1/C(=C/c2c[nH]c3ccccc23)Oc2cc(O)cc(O)c21    14
O=C1/C(=C/c2c(-c3ccccn3)[nH]c3ccccc23)Oc2cc(O)cc(O)c21    3

Moving on to another compound below.
Asked: Value lookup for solubility; key = COc1ccc2c(c1)c(/C=C1\Oc3cc(O)cc(O)c3C1=O)c(C)n2CCCN(C)C
Given back: 32

###

- tested_on: Phosphatidylinositol 4,5-bisphosphate 3-kinase catalytic subunit gamma isoform (Homo sapiens)
- Sequence (P48736 whole entry, canonical isoform): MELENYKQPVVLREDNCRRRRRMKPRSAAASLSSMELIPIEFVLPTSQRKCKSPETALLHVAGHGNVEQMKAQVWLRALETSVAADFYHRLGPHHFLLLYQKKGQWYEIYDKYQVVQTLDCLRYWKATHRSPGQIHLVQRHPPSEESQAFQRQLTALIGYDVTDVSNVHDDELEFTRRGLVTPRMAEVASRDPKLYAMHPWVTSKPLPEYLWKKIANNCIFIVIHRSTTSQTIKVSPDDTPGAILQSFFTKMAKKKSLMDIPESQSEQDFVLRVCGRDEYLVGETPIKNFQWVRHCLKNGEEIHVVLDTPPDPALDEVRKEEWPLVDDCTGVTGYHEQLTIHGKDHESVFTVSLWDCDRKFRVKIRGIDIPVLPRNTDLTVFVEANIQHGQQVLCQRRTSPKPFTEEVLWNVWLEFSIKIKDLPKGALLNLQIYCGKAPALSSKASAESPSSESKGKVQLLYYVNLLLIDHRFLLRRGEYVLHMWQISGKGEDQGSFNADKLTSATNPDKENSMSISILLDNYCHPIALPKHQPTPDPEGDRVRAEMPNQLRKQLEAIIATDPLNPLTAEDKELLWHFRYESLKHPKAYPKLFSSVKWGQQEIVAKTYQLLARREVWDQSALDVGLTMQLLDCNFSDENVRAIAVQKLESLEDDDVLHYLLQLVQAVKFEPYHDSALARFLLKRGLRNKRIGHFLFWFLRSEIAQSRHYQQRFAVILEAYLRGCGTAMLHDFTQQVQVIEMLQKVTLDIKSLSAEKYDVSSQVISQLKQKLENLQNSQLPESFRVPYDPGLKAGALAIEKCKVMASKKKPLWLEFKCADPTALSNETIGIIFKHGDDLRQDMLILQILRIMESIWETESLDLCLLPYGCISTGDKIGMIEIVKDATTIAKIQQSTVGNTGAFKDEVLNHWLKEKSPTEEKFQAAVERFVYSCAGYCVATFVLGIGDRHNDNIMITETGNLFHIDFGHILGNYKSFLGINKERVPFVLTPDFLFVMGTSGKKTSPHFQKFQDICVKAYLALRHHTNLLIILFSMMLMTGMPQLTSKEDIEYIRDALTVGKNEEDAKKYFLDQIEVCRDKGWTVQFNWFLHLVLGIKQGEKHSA
- measurement_protocol: Inhibition of PI3Kgamma
Exercise: for every item that follows, state its recorded pIC50.
Answers are plain numbers, as −log10 of the molar value.

COc1ccc2c(c1)c(/C=C1\Oc3cc(O)cc(O)c3C1=O)cn2CCCN1CCN(CCO)CC1    5.87

Would you mind listing pIC50 for each of the following compounds?
1. COc1ccc2c(c1)c(/C=C1\Oc3cc(O)cc(O)c3C1=O)c(C)n2CCN1CCN(C)CC1
2. O=C1/C(=C/c2c(-c3ccccc3)[nH]c3ccccc23)Oc2cc(O)cc(O)c21
3. COc1ccc2c(c1)c(/C=C1\Oc3cc(O)cc(O)c3C1=O)c(C)n2CCN1CCOCC1
4. COc1ccc2c(c1)c(/C=C1\Oc3cc(O)cc(O)c3C1=O)c(C)n2CCCN1CCN(C)CC1
5. COc1ccc2c(c1)c(/C=C1\Oc3cc(O)cc(O)c3C1=O)c(C)n2CCCN1CCN(CCO)CC1

Given back:
6.33
5.56
6.81
6.40
6.96

Would you mind listing pIC50 for each of the following compounds?
1. COc1ccc2[nH]c(C)c(/C=C3\Oc4cc(O)cc(O)c4C3=O)c2c1
2. COc1ccc2c(c1)c(/C=C1\Oc3cc(O)cc(O)c3C1=O)cn2C

Given back:
1. 7.60
2. 6.23
